B1: tRNA (parent)
chain: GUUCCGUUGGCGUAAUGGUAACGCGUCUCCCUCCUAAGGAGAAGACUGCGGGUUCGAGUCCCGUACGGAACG

# Variants of: B1
# procedure-text: yeast fitness relative to wild type (ratio to wild type); higher = fitter; tRNA-Arg(CCU), competitive growth, 37 C, YPD
Fewer inactive variants are shown than the library holds.
readout: yeast fitness

> print(dat)
                          mutant.code  test.value
 1                          U13G G25C       0.797
 2                     C30G A42C C55U       ≤ 0.5
 3           G12C U26A C33A C34G A69G       ≤ 0.5
 4                A15U A20G C30A G63C       ≤ 0.5
 5                     A40C U54A C62U       ≤ 0.5
 6                          C27A G67U       0.745
 7                C24U U26C C27A A69U       ≤ 0.5
 8                     C46U G50A C66G       ≤ 0.5
 9                U19A C29U G67C A69G       ≤ 0.5
10                     G18A C27U C46A       0.528
11           A14U U26G G56A A65G C66U       ≤ 0.5
12                     A37C U53C U64A       0.679
13           A42U A43G G48C U53A A70C       0.525
14            C5A C46A G56C G68A A70G       ≤ 0.5
15                          A21G C46U        0.97
16                 U2A A45C G58A C61U       ≤ 0.5
17           C11G G17C C34A A43C G56C       ≤ 0.5
18                 U3A A14C A42C U47C       ≤ 0.5
19            C4A C24U C46U C55A C66U       ≤ 0.5
20  C5A C24G C29G A40C A43U U47A C60A       ≤ 0.5
21                 G9A C24U A40U G68C       ≤ 0.5
22                     G39A G48A A57U       ≤ 0.5
23                G10A U16A U28A A70U       ≤ 0.5
24           C29U C31U U54G A65U A69U       ≤ 0.5
25            G9A C22A C33G U35A C55U       ≤ 0.5
26      G10A C27U C34G A37U G41C G48A       0.573
27                  U3G C5G A20C C61U       ≤ 0.5
28                           G6C G48C       0.837
29             U3A C4U C33G C34G A57U        0.63
30                     A40U C55U C61G       0.507
31                      G9A C24U U32G       ≤ 0.5
32                C24U U28C G48A C61G       ≤ 0.5
33                     C29A A42U U64C       ≤ 0.5
34                          A14U G52C       ≤ 0.5
